System: BT-549 breast
Assay Details: NCI tumour cell line growth inhibition, 48 h
Quantity Name: TGI

{"Molecule": "N=C(N)SCc1cccc(-c2nc3ccccc3c(=O)o2)c1", "Recorded Measurement": "> 100 µM"}
{"Molecule": "CC1Cn2c(nc3ccccc32)NC1=O (centres undefined)", "Recorded Measurement": "> 100 µM"}
{"Molecule": "CCCSc1ccc2[nH]c(/N=C/c3ccco3)cc2c1", "Recorded Measurement": "> 100 µM"}
{"Molecule": "Cc1cc(C2CC(O)C(CO)O2)cc2c(=O)[nH]c(N)nc12 (centres undefined)", "Recorded Measurement": "> 100 µM"}
{"Molecule": "C=C1C(=O)CC2C(=O)C(C)(O)CC/C=C(\\C)C(=O)CC12 (centres undefined)", "Recorded Measurement": "35.5 µM"}
{"Molecule": "CCC1(C(=O)OC(C)(C)C)OC12C(C)CCCC2C (centres undefined)", "Recorded Measurement": "> 100 µM"}
{"Molecule": "COc1ccc2c(c1)[C@@]13CCCC[C@H]1[C@@H](C2)N(C)CC3=O", "Recorded Measurement": "31.4 µM"}
{"Molecule": "N#Cc1c(-c2ccccc2)nc(-c2ccccc2)sc1=S", "Recorded Measurement": "> 100 µM"}
{"Molecule": "COCCOc1cnc2ccn([C@H](C)c3nnc4c(F)cc(-c5cnn(C)c5)cn34)c(=O)c2c1", "Recorded Measurement": "> 100 µM"}
